target-of-assay: T1, Cyno B7-H4-Fc (Cyno B7H4 ECD, FcTM_6His) (cynomolgus monkey)
T1 construct: extracellular domain; also called cynomolgus B7-H4-Fc
assay: HTRF binding, human IgG1-TM
readout-label: pEC50
When answering, recall that pEC50 equals minus log10 of the concentration in mol/L, and write that number alone.

// solved cases for pEC50 follow
binder="ZY0EP0-C07 human IgG1-TM (antibody, V domains shown, also called ZY0EPO-C07) VH: QVQLVESGGVLVKPGGSLRLSCAASGFTLSDYYMSWIRQAPGMGLEWVSYISSSGSTIYYTDSVKGRFTISRDSAKNSLYLQMNSLRAEDTAVYYCARDGVGFDYWGQGTLVTVSS VL: EIVLTQSPGTLSLFPGERATLSCRASQSVSSSYLAWYQQKPGQSPRLLIYAASSRATGIPDRFSGSGSGTDFTLTISRLEPEDFAVYYCQQYGSSPLYTFGQGTKLEIK" reported_value=9.41
binder="ZY0EPQ-E02 human IgG1-TM (antibody, V domains shown) VH: QVQLQQWGAGLLKPSETLSLTCAVYGGSFSGYYWNWIRQPPGKGLEWIGEINHSGSTNYNPSLKSRVTILVDTSKNQFSLKLSSVTAADTAVYYCARNLYNWNLDSWGQGTLVTVSS VL: DIQMTQSPSSLSASVGDRVTITCRASQGIRNDLGWYQQKPGRAPKRLIYVASSLQSGVPSRFSGSGSGTEFTLTISSLQPEDFATYYCLQHNSYPRTFGQGTKVEIK" reported_value=9.46
binder="ZY0EOB-F05 human IgG1-TM (antibody, V domains shown) VH: QVQLQESGPGLVKPSQTLSLTCTVSDGSISSGGYYWSWIRQHPGKGLEWIGNIYYSGSTYYNPSLKSRVTISVDTSKNQFSLKLNSVTAADTAVYYCATEKALATVTPSGYENYYTVDVWGQGTTVTVSS VL: DIQLTQSPSFLSASVGDRVTITCWASQGISSYLAWYQQKPGKAPKLLIYAASTLQSGVPSRFSGSGSGTEFTLTISSLQPEDFATYYCQHLNSYPLTFGGGTKVEIK" reported_value=9.82

Q. Param item = ZY0EQD-E02 human IgG1-TM (antibody, V domains shown) VH: QVQLQQWGAGLLKPSETLSLTCAVYGGSFSGYYWNWIRQPPGKGLEWIGEINHSGSTSYNPSLKSRVTISVDTSKNQFSLKLSSVTAADTAVYYCARVLYNWNVDSWGQGTLVTVSS VL: DIQMTQSPSSLSASVGDRVTITCRASQDIRNDVGWYQQKPGKAPKRLIYAASRLQSGVPSRFSGSGSGTEFTLTISSLQPEDFATYYCLQHNSYPRTFGQGTKVEIK ; retrieve measured pEC50.
A. 9.55
